- TGT: T1, KAE1 mutant-1;BUD32;CGI121;PCC1 (Arabidopsis thaliana;Arabidopsis …, UniProt O49653;Q94K14;Q6NMZ4;Q8GWD7 1-353;1-226;1-172;1-96, Y36R;I37K;T38R;P39R;P40R;G41W;H42D|||)
- T1 sequence 1: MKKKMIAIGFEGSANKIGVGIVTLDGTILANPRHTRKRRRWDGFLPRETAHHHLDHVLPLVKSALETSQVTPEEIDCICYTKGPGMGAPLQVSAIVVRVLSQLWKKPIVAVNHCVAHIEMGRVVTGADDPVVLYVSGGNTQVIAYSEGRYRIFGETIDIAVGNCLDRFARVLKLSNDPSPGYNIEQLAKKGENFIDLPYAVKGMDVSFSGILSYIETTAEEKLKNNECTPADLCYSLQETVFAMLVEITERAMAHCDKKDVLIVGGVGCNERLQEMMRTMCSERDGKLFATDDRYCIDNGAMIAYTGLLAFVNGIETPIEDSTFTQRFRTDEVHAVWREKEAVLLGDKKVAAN
- T1 sequence 2: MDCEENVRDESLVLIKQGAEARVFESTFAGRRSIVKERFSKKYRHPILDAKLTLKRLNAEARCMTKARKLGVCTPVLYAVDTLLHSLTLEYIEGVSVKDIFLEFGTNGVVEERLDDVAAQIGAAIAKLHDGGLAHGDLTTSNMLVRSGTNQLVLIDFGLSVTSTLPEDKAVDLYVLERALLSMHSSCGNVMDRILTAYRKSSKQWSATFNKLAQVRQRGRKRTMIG
- T1 sequence 3: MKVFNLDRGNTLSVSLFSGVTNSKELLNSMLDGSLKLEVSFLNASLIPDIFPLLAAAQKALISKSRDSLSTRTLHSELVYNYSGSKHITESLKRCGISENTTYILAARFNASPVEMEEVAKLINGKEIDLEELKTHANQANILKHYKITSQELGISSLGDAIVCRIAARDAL
- T1 sequence 4: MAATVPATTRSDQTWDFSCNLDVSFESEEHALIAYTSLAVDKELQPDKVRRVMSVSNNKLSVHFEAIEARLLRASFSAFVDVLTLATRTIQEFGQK
- ASSAY_EXPLANATION: MST; MST: 20 mM PBS pH 7.5, 300 mM NaCl, 0.05% Tween 20, 25 C, 50 nM RNA; EMSA: 20 mM Tris-HCl pH 7.5, 300 mM NaCl, 5 mM b-mercaptoethanol, 20% glycerol, agarose gel in Tris-glycine pH 8.0 (8.5 for FAM-RNA), 4 C
- EXPERIMENTAL_PARAMETERS: protein: recombinant;recombinant;recombinant;recombinant; tags: ;none (6His on partner CGI121);6His (C-term);6His (C-term); chain copies: 2;2;2;2; label: 5' 6-FAM; tRNA cloverleaf
pKd: −log10 of the molar value.

{"BINDER": "5'-6FAM-tRNAArgCCU (structured_RNA) RNA: GCGCCUGUAGCUCAGUGGAUAGAGCGUCUGUUUCCUAAGCAGAAGGUCGUAGGUUCGACCCCUACCUGGCGCGCCA", "pKd": 5.28}
